# test.system: Ribosomal protein S6 kinase alpha-3 (Homo sapiens, UniProt P51812)
pIC50: −log10 of the molar value.

compound	pIC50
COc1cc(N2CCC(N3CCN(C)CC3)CC2)ccc1Nc1ncc(Cl)c(Nc2ccccc2P(C)(C)=O)n1 [BRIGATINIB]	7.59

###

# test.system: UniProt P06241
pIC50: −log10 of the molar value.
value.kind: pIC50

COc1cc(N2CCC(N3CCN(C)CC3)CC2)ccc1Nc1ncc(Cl)c(Nc2ccccc2P(C)(C)=O)n1 6.70

###

# procedure.details: Protein binding in human plasma at 750 mg, administered once a day
# Format: ADME, cell-free
# experimental.parameters: read-out: PPB (converted)
value.kind: fraction unbound

Cc1cc(Nc2ncc(Cl)c(Nc3ccccc3S(=O)(=O)C(C)C)n2)c(OC(C)C)cc1C1CCNCC1 0.028

###

# test.system: UniProt P08069
pIC50: −log10 of the molar value.
value.kind: pIC50

COc1cc(N2CCC(N3CCN(C)CC3)CC2)ccc1Nc1ncc(Cl)c(Nc2ccccc2P(C)(C)=O)n1 6.83

###

# test.system: Macrophage colony-stimulating factor 1 receptor (Homo sapiens)
# Sequence (P07333 whole entry): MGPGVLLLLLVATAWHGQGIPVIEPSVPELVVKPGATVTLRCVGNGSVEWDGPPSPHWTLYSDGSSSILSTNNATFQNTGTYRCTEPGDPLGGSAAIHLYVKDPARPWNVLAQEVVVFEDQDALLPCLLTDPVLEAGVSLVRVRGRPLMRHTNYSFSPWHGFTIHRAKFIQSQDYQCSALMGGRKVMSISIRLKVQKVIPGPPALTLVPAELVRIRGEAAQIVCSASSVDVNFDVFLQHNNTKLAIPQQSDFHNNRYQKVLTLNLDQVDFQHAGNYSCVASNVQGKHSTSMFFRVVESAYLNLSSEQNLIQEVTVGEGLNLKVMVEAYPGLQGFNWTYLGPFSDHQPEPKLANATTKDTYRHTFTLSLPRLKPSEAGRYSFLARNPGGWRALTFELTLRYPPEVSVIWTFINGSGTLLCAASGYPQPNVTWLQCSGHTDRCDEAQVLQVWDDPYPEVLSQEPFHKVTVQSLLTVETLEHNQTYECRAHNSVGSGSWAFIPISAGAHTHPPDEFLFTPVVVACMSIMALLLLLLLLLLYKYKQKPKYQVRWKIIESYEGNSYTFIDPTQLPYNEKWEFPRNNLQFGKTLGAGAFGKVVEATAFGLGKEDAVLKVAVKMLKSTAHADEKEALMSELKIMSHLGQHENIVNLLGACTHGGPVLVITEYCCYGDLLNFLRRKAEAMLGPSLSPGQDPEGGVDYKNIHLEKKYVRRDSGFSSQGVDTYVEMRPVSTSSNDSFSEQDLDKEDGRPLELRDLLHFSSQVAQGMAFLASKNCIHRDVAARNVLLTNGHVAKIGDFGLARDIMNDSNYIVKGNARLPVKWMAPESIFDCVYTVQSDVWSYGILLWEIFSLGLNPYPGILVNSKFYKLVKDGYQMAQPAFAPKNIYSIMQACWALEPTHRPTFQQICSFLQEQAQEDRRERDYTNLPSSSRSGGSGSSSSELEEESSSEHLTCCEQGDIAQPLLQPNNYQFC
value.kind: IC50 (nM)

molecule	test.system	value.kind	reported.result
COc1cc(N2CCC(N3CCN(C)CC3)CC2)ccc1Nc1ncc(Cl)c(Nc2ccccc2P(C)(C)=O)n1 [BRIGATINIB]	Macrophage colony-stimulating factor 1 receptor (Homo sapiens)	IC50	358

###

# test.system: cGMP-dependent protein kinase 1 (Homo sapiens)
# Sequence (Q13976 whole entry): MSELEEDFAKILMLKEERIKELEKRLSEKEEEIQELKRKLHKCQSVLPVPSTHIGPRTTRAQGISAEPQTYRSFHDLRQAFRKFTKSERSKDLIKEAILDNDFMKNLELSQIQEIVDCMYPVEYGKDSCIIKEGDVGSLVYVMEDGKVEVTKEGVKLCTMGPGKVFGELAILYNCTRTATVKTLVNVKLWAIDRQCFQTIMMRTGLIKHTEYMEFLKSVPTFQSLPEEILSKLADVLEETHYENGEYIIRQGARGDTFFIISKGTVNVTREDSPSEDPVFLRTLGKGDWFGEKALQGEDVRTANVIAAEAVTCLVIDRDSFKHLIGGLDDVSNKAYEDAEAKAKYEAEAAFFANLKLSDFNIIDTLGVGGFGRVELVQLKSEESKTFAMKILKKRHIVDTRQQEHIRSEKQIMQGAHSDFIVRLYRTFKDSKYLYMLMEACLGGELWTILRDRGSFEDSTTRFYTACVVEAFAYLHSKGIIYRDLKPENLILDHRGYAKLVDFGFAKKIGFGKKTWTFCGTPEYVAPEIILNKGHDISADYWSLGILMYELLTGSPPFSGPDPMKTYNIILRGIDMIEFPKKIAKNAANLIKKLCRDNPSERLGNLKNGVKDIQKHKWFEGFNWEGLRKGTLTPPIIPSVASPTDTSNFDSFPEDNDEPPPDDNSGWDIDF
pIC50: −log10 of the molar value.
value.kind: pIC50

COc1cc(N2CCC(N3CCN(C)CC3)CC2)ccc1Nc1ncc(Cl)c(Nc2ccccc2P(C)(C)=O)n1 < 6.00

###

# test.system: Serine/threonine-protein kinase PLK1 (Homo sapiens)
# Sequence (P53350 whole entry): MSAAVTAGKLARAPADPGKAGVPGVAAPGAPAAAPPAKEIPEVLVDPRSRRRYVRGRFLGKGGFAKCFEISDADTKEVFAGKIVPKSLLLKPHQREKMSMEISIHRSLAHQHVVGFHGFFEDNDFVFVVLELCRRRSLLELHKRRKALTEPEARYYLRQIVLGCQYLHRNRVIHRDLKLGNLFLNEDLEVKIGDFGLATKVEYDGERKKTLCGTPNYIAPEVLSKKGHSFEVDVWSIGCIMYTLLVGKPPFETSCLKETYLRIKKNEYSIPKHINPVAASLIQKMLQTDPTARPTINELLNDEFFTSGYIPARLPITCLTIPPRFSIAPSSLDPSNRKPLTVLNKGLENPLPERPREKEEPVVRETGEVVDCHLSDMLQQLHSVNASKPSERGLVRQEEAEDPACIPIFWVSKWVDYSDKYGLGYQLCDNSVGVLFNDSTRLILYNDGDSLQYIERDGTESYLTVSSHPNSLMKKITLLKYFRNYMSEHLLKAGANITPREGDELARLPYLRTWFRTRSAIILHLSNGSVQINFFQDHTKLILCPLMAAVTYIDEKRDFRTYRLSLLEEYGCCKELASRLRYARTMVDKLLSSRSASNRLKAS
pIC50: −log10 of the molar value.

molecule	pIC50
COc1cc(N2CCC(N3CCN(C)CC3)CC2)ccc1Nc1ncc(Cl)c(Nc2ccccc2P(C)(C)=O)n1 [BRIGATINIB]	6.21

###

# test.system: Tyrosine-protein kinase Lck (Homo sapiens, UniProt P06239)
value.kind: IC50

COc1cc(N2CCC(N3CCN(C)CC3)CC2)ccc1Nc1ncc(Cl)c(Nc2ccccc2P(C)(C)=O)n1 512 nM

###

# test.system: Leucine-rich repeat serine/threonine-protein kinase 2 (Homo sapiens)
# Sequence (Q5S007 whole entry): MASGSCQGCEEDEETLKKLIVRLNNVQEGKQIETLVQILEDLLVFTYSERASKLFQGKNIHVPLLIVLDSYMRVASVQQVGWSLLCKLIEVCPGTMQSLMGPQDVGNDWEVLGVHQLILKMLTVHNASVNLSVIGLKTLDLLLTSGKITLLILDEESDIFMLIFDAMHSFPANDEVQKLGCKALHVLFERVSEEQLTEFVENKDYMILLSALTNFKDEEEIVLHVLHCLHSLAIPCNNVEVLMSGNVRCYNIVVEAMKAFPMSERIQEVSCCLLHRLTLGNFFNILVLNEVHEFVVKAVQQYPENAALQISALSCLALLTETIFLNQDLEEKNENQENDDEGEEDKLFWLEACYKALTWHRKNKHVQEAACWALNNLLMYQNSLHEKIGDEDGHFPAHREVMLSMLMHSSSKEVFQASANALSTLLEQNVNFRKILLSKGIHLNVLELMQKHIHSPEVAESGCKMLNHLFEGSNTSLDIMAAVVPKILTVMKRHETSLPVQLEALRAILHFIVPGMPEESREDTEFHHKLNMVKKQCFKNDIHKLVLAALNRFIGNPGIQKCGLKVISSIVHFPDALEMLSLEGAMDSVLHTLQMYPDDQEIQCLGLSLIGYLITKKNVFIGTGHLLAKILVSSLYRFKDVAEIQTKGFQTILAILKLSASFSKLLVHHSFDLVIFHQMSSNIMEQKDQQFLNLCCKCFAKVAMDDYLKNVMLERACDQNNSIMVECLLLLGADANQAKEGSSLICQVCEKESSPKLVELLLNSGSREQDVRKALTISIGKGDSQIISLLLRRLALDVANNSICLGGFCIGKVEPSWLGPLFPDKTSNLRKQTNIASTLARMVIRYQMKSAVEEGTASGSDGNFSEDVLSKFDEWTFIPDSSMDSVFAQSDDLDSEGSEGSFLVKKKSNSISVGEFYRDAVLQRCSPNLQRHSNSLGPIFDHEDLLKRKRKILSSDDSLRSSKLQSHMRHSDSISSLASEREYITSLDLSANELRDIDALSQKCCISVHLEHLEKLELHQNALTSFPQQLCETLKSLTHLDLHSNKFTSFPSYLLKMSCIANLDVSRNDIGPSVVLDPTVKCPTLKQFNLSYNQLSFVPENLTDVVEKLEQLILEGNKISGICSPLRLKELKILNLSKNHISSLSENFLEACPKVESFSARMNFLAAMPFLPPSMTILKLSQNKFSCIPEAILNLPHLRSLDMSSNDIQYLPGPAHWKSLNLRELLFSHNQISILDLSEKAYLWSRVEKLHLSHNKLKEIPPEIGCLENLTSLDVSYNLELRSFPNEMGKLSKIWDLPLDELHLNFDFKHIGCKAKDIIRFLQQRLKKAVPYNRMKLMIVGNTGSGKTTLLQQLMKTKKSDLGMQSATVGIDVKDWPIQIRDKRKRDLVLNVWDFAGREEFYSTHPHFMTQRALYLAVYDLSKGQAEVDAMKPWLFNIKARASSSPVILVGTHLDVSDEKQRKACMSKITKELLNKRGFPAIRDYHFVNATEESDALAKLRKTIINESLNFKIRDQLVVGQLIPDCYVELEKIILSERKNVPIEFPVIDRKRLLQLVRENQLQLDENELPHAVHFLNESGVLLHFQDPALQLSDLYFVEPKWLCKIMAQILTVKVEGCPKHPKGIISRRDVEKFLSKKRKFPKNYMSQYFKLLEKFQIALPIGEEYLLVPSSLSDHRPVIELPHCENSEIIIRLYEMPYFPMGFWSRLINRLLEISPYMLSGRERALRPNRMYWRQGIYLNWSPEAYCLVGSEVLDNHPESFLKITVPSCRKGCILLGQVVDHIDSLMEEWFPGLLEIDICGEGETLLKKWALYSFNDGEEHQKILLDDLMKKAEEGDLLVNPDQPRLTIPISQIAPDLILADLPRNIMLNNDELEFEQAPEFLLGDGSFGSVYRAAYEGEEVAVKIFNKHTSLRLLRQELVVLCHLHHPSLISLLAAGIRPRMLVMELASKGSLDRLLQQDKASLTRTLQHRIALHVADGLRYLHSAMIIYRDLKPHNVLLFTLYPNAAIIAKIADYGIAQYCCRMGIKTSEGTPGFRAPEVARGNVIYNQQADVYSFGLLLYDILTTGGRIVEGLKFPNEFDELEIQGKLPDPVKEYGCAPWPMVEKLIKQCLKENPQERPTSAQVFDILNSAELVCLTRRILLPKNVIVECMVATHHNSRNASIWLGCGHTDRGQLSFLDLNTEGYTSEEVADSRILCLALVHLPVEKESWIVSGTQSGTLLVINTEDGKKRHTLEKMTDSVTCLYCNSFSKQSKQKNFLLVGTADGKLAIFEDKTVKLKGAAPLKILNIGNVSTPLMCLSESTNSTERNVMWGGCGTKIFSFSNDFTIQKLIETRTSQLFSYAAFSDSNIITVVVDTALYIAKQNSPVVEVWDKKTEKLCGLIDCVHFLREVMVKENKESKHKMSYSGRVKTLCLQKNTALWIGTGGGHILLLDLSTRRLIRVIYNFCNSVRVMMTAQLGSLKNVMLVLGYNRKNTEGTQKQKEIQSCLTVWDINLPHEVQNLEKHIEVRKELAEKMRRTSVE
value.kind: IC50 (nM)

COc1cc(N2CCC(N3CCN(C)CC3)CC2)ccc1Nc1ncc(Cl)c(Nc2ccccc2P(C)(C)=O)n1 51

###

# test.system: Testis-specific serine/threonine-protein kinase 1 (Homo sapiens)
# Sequence (Q9BXA7 whole entry): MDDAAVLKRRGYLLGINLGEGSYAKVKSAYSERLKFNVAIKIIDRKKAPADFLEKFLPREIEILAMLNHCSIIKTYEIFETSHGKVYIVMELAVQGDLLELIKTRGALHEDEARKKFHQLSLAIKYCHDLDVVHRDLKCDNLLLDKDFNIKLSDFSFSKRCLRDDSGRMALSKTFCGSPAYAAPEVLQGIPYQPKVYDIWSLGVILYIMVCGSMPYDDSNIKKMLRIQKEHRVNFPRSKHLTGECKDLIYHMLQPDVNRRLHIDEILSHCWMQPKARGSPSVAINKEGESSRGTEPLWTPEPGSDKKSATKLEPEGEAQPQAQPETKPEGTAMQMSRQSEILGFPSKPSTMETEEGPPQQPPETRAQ
pIC50: −log10 of the molar value.

compound	test.system	pIC50
COc1cc(N2CCC(N3CCN(C)CC3)CC2)ccc1Nc1ncc(Cl)c(Nc2ccccc2P(C)(C)=O)n1 [BRIGATINIB]	Testis-specific serine/threonine-protein kinase 1 (Homo sapiens)	8.36
